- METHOD: self-splicing fitness, log relative to wild type (ln ratio); higher = more splicing; Tetrahymena group I intron in knt gene, E. coli kanamycin selection, DiMSum; sequences stand for … in CUCUCU…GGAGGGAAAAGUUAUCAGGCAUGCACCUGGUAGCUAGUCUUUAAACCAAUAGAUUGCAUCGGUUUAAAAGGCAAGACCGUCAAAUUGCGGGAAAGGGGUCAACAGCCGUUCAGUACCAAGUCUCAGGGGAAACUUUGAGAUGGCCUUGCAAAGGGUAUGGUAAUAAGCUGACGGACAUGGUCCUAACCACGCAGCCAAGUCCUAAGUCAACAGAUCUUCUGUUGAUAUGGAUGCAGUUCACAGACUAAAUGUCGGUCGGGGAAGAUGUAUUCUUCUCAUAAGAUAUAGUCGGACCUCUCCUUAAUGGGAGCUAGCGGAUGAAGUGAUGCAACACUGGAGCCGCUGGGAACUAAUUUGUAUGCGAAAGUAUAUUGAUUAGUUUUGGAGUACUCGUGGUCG;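 note: selection with 25 µg/mL kanamycin versus none on LB agar overnight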
- EXPERIMENTAL_PARAMETERS: 30 °C
REPORTED_PROPERTY: self-splicing fitness (ln)

>>> endpoint_result("ACCGAGCAAUAUUACGAACG")
-2.36
>>> endpoint_result("GCCAAGCAAUAUUACGCUCU")
-0.234
>>> endpoint_result("UGGCAGCAAUAUUACGAGCA")
-0.315
>>> endpoint_result("AAUAAGCAAUAUUACGACUU")
-0.182
>>> endpoint_result("GGUGAGCAAUAUUACGGUCA")
-1.77
>>> endpoint_result("UAGUAGCAAUAUUACGGGAA")
-2.79
>>> endpoint_result("ACGUAGCAAUAUUACGAAAU")
-2.28
>>> endpoint_result("ACUGAGCAAUAUUACGCGCG")
-1.14
>>> endpoint_result("CUUGAGCAAUAUUACGUUAC")
-3
>>> endpoint_result("CUUCAGCAAUAUUACGAUAC")
-3.22
>>> endpoint_result("UCGAAGCAAUAUUACGAGCU")
-3.7
>>> endpoint_result("ACGUAGCAAUAUUACGAGGA")
-2.78
>>> endpoint_result("CAUGAGCAAUAUUACGUUGA")
-2.92
>>> endpoint_result("UUUUAGCAAUAUUACGUGAA")
-1.14
>>> endpoint_result("UCUCAGCAAUAUUACGUCAU")
-3.13
>>> endpoint_result("CUCAAGCAAUAUUACGUACU")
-3.51
>>> endpoint_result("AAAAAGCAAUAUUACGCUAC")
-3.43
>>> endpoint_result("GUCUAGCAAUAUUACGGACA")
-1.63
>>> endpoint_result("AACGAGCAAUAUUACGCCGA")
-2.83
>>> endpoint_result("AGCCAGCAAUAUUACGCUAA")
-2.53
>>> endpoint_result("GGACAGCAAUAUUACGCCGG")
-3.95
>>> endpoint_result("UCAUAGCAAUAUUACGAUGA")
-2.65
>>> endpoint_result("CCAAAGCAAUAUUACGUCGU")
-3.82
>>> endpoint_result("GGGUAGCAAUAUUACGAACU")
-0.832
>>> endpoint_result("GUGAAGCAAUAUUACGUUGU")
-2.68
>>> endpoint_result("CCACAGCAAUAUUACGAGCG")
-0.707
>>> endpoint_result("ACUGAGCAAUAUUACGCUUG")
-3.28
>>> endpoint_result("UGACAGCAAUAUUACGAACC")
-2.97
>>> endpoint_result("ACCUAGCAAUAUUACGUAUU")
-1.84
>>> endpoint_result("CAUCAGCAAUAUUACGCUUG")
-2.08
>>> endpoint_result("AAAUAGCAAUAUUACGUACU")
0.159
>>> endpoint_result("CUCGAGCAAUAUUACGGUCU")
-3.02
>>> endpoint_result("GUGUAGCAAUAUUACGUUGG")
-4.05
>>> endpoint_result("UCUGAGCAAUAUUACGUCGA")
-0.0432
>>> endpoint_result("CAUGAGCAAUAUUACGUAGA")
-4.22
>>> endpoint_result("CCUCAGCAAUAUUACGGACU")
-3.93
>>> endpoint_result("GGUAAGCAAUAUUACGACUA")
0.407
>>> endpoint_result("AAGCAGCAAUAUUACGUAAC")
-2.67
>>> endpoint_result("UCCCAGCAAUAUUACGAGAU")
-3.57
>>> endpoint_result("AAAUAGCAAUAUUACGCAUA")
-1.7
>>> endpoint_result("GUGUAGCAAUAUUACGGCCG")
-0.432
>>> endpoint_result("AUAGAGCAAUAUUACGCAGU")
-1.73
>>> endpoint_result("GUCUAGCAAUAUUACGUCUU")
-0.274
>>> endpoint_result("GUAGAGCAAUAUUACGGUGG")
-3.39
>>> endpoint_result("GGGAAGCAAUAUUACGCCAA")
-1.66
>>> endpoint_result("UUGAAGCAAUAUUACGACUG")
-0.106
>>> endpoint_result("GGUAAGCAAUAUUACGGAGC")
-2.99
>>> endpoint_result("GUCGAGCAAUAUUACGGGUU")
-3.03

These entries and their values trace back to the supplement of paper PMC7877785.
